Assay: log P by HPLC on reversed-phase column (C18), EEC Directive 79/831 Annex V.A8
Type: physicochemical
Conditions: C18, 40° C., acidic
property.name: log p acidic

> print(dat)
                                   compound  observed.measurement
1  CCN(C)C=Nc1cc(C)c(Oc2cccc(-c3cccnc3Cl)c2)cc1C                  2.05
2  CCN(C)C=Nc1cc(OC)c(Oc2ccc(Cl)c(C(F)(F)F)c2)cc1C                  2.21
3     CCN(C)C=Nc1cc(OC)c(-c2ccc(C)cc2)cc1OC                  1.89
4  CCN(C)C=Nc1cc(C)c(Oc2cccc(Oc3ccccc3)c2)cc1C                  2.51
5  Cc1cc(Oc2nc(C3(Cl)CC3)ns2)c(Cl)cc1N=CN1CCCCC1                  1.98
6  Cc1cc(Oc2cc(Cl)cc(Br)c2)c(C)cc1N=CN(C)C(C)C                  2.70
7  CCN(C)C=Nc1cc(C)c(Oc2cccc(C(C)(CC)OC)c2)cc1C (stereo not drawn)                  2.30
8    CCN(C)C=Nc1cc(C)c(Oc2ccc3ccccc3c2)cc1C                  2.38
9      Cc1cc(-c2ccc(Cl)cc2C)c(C)cc1N=CN(C)C                  2.24

* * *

Experiment: log P by HPLC on reversed-phase column (C18), EEC Directive 79/831 Annex V.A8
Format: physicochemical
Details: C18, 40° C., 0.1% aqueous phosphoric acid / acetonitrile
Protocol: The log P data were determined in accordance with the EEC Directive 79/831 Annex V.A8 by HPLC (High Performance Liquid Chromatography) on a reversed-phase column (C18) using the following methods: […] Calibration was carried out with the help of unbranched alkan-2-ones (consisting of 3 to 13 or 16 carbon atoms) with known logP values (determination of the logP values via the retention times by means of linear interpolation between two subsequent alkanones).
property.name: log p H3PO4

> print(dat)
                                   compound  property.name  observed.measurement
1  CC(C)N(C)C=Nc1cc(Cl)c(Oc2cccc(C(C)(C)C)c2)cc1Cl [compound 807]    log p H3PO4                   2.7
2  Cc1cc(N=CN(C)C(C)C)c(Cl)cc1Oc1ccc(C(C)C)cc1 [compound 889]    log p H3PO4                  2.87
3  CCN(C)C=Nc1cc(C)c(Oc2cccc(C(C)C)c2)cc1Cl [compound 875]    log p H3PO4                  2.56
4  CCN(C)C=Nc1cc(C)c(OCc2sc(Cl)nc2Cl)cc1C [compound 555]    log p H3PO4                  1.99
5  CN(C)C=Nc1cc(C(F)(F)F)c(Oc2ccc(Cl)c(C(F)(F)F)c2)cc1Cl [compound 947]    log p H3PO4                  2.61

(I) CC(C)N(C)C=Nc1cc(C(F)(F)F)c(Oc2ccc(Cl)c(C(F)(F)F)c2)cc1Cl [compound 949]
(II) CCN(C)C=Nc1cc(Cl)c(Oc2ccccc2)cc1Cl [compound 801]
Enquiry: Which gives the smaller log p H3PO4 number: I or II ? The response must carry the label of the picked entry.
Return: II

* * *

Experiment: log P by HPLC on reversed-phase column (C18), EEC Directive 79/831 Annex V.A8
Type: physicochemical
Settings: C18, 40° C., 0.1% aqueous phosphoric acid / acetonitrile
property.name: log p H3PO4

> print(dat)
                              smiles.record  property.name  observed.measurement
1  CCN(C)C=Nc1cc(Cl)c(Oc2nc(C(C)(C)C)ns2)cc1Cl    log p H3PO4                  2.34
2  Cc1cc(N=CN2CCCCC2)c(Cl)cc1Oc1ccc(Cl)c(C(C)(C)C)c1    log p H3PO4                  3.36
3  CN(C)C=Nc1cc(Cl)c(Oc2ccc(Cl)c(C(C)(C)C)c2)cc1Cl    log p H3PO4                   2.9
4   Cc1cc(-c2ccc(Cl)cc2)c(F)cc1N=CN(C)C(C)C    log p H3PO4                  2.22
5  Cc1cc(N=CN2CCCCC2)c(Cl)cc1Oc1cccc(C(C)(C)C)c1    log p H3PO4                     3
6  Cc1cc(N=CN(C)C(C)C)c(Cl)cc1Oc1cccc(C(C)(C)C)c1    log p H3PO4                  2.79
7  Cc1cc(N=CN2CCCCC2)c(Cl)cc1Oc1cccc(C(C)C)c1    log p H3PO4                  2.77

Cited source: patent US20100113276A1
